Below: a set of entries, each annotated with reported pKd.
# System Tested: GDP-bound KRAS wild-type protein (Homo sapiens)
# Sequence (P01116 1-188 isoform P01116-2): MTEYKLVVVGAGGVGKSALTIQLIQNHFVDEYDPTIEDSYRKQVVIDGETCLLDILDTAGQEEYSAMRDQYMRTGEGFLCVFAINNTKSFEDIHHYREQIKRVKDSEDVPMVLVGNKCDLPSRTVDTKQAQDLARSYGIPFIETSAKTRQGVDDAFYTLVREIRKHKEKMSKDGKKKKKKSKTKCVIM
# Assay Info: Binding to KRAS by surface plasmon resonance (SPR), dissociation constant KD
# Measurement Conditions: 1:1 binding model
pKd: −log10 of the molar value. Where a SMILES comes first, the peptide text is derived from it. Bridges are numbered along the chain shown (N, C = ends). [ ]: non-standard residue; d: D form. The star is where a group is joined. hPhe(3-Cl-4-CF3) = N[C@@H](CCc1ccc(C(F)(F)F)c(Cl)c1)C(=O)O; NPrPhe(4-CF3) = CCCN[C@@H](Cc1ccc(C(F)(F)F)cc1)C(=O)O; NMeGly(cPent) = CN[C@H](C(=O)O)C1CCCC1; NMeL = CN[C@@H](CC(C)C)C(=O)O; Morpholide = C1CN(*)CCO1; Aze = O=C(O)[C@@H]1CCN1; Ac4c = NC1(C(=O)O)CCC1; Sar = CNCC(=O)O
Experimental Endpoint: pKd

• CCC[C@H]1C(=O)N[C@@H]([C@@H](C)CC)C(=O)N(C2CC2)CC(=O)N(C)[C@H]2C/C=C\CCN(C2=O)[C@@H](Cc2ccc(C)cc2)C(=O)N(C)CC(=O)N[C@@H](CCc2ccc(C(F)(F)F)c(OC)c2)C(=O)N2C[C@@H](C)C[C@H]2C(=O)N(C)C2(CCC2)C(=O)N(C)[C@@H](C2CCCC2)C(=O)N(C)[C@H](C(=O)N(C)C)CC(=O)N1C = 10.32
• CCCN1C(=O)CN(C)C(=O)[C@@H]2CCN2C(=O)[C@H]([C@@H](C)CC)NC(=O)[C@H](CC(C)C)N(C)C(=O)C[C@@H](C(=O)N2CCOCC2)NC(=O)[C@H](C2CCCC2)N(C)C(=O)C2(CCC2)NC(=O)[C@@H]2CCCN2C(=O)[C@H](CCc2ccc(C(F)(F)F)c(Cl)c2)NC(=O)CN(C)C(=O)[C@@H]1Cc1ccc(C(F)(F)F)cc1 [PP0338] ([NMeL]I[Aze][Sar][NPrPhe(4-CF3)][Sar][hPhe(3-Cl-4-CF3)]P[Ac4c][NMeGly(cPent)]D-Morpholide; lactam N-11) = 8.44
• CC[C@H](C)[C@@H]1NC(=O)[C@H](COC)N(C)C(=O)C[C@@H](C(=O)N(C)CC)N(C)C(=O)[C@H](C2CCCC2)N(C)C(=O)C2(CC(C)(C)C2)NC(=O)[C@@H]2C[C@@H](F)CN2C(=O)[C@H](CCc2cc(F)cc(F)c2)NC(=O)CN(C)C(=O)[C@H](Cc2ccc(C(F)(F)F)cc2)N2CC/C=C\C[C@@H](C2=O)N(C)C(=O)CN(C)C1=O = 8.36

* * *

# Tested on: human lung cancer strain NCI-H441
# Assay type: cell-based
*1 amine or outer side, *2 acyl side, *3 side chain or, on linkers, in order; H or OH if unused. Where a SMILES comes first, the peptide text is derived from it. Bridges are numbered along the chain shown (N, C = ends). [ ]: non-standard residue; d: D form. The star is where a group is joined. hPhe(3-Cl-4-CF3) = N[C@@H](CCc1ccc(C(F)(F)F)c(Cl)c1)C(=O)O; NPrPhe(4-CF3) = CCCN[C@@H](Cc1ccc(C(F)(F)F)cc1)C(=O)O; X28 = Cc1ccc(C[C@@H](C(=O)[*:2])N(CC2CCCCC2)[*:1])cc1; NMeGly(cPent) = CN[C@H](C(=O)O)C1CCCC1; NEtLeu = CCN[C@@H](CC(C)C)C(=O)O; NMeD = CN[C@@H](CC(=O)O)C(=O)O; NMeL = CN[C@@H](CC(C)C)C(=O)O; Morpholide = C1CN(*)CCO1; Ac5c = NC1(C(=O)O)CCCC1; Aze = O=C(O)[C@@H]1CCN1; Ac4c = NC1(C(=O)O)CCC1; NEtG = CCNCC(=O)O; Sar = CNCC(=O)O
Labelling: IC50 reported below 70 nM becomes criterion met; at or above becomes criterion not met.

* C#CCN1CC(=O)N(C)[C@H]2C/C=C\CCN(C2=O)[C@@H](Cc2ccc(C)cc2)C(=O)N(C)CC(=O)N[C@@H](CCc2cc(F)c(C(F)(F)F)c(F)c2)C(=O)N2C[C@H](OCC)C[C@H]2C(=O)NC2(CC(C)(C)C2)C(=O)N(C)[C@@H](C2CCCC2)C(=O)N(C)[C@H](C(=O)N(C)C)CC(=O)N(C)[C@@H](CC(C)C)C(=O)N[C@@H]([C@@H](C)CC)C1=O [PP2052] | criterion met
* CC[C@H](C)[C@@H]1NC(=O)[C@H](CC(C)C)N(C)C(=O)C[C@@H](C(=O)N2CCOCC2)N(C)C(=O)[C@H](C2CCCC2)N(C)C(=O)C2(CCCC2)NC(=O)[C@@H]2CCCN2C(=O)[C@H](CCc2ccc(C(F)(F)F)c(Cl)c2)NC(=O)CN(C)C(=O)[C@H](Cc2ccc(C)cc2)N(CC2CCCCC2)C(=O)CN(C)C(=O)CN(C)C1=O [PP0097] ([NMeL]I[Sar][Sar][X28][Sar][hPhe(3-Cl-4-CF3)]P[Ac5c][NMeGly(cPent)][NMeD]-Morpholide; lactam N-11) | criterion not met
* CCCN1C(=O)CN(C)C(=O)CN(CC)C(=O)[C@H]([C@@H](C)CC)NC(=O)[C@H](CC(C)C)N(C)C(=O)C[C@@H](C(=O)N2CCOCC2)N(C)C(=O)[C@H](C2CCCC2)N(C)C(=O)C2(CCCC2)NC(=O)CN(C)C(=O)[C@H](CCc2ccc(C(F)(F)F)c(Cl)c2)NC(=O)CN(C)C(=O)[C@@H]1Cc1ccc(C(F)(F)F)cc1 [PP0300] ([NMeL]I[NEtG][Sar][NPrPhe(4-CF3)][Sar][hPhe(3-Cl-4-CF3)][Sar][Ac5c][NMeGly(cPent)][NMeD]-Morpholide; lactam N-11) | criterion not met
* CCCN1C(=O)CN(C)C(=O)[C@@H]2CCN2C(=O)[C@H]([C@@H](C)CC)NC(=O)[C@H](CC(C)C)N(C)C(=O)C[C@@H](C(=O)N(C)C)NC(=O)[C@H](C2CCCC2)N(C)C(=O)C2(CCC2)NC(=O)[C@@H]2CCCN2C(=O)[C@H](CCc2ccc(C(F)(F)F)c(Cl)c2)NC(=O)CN(C)C(=O)[C@@H]1Cc1ccc(C(F)(F)F)cc1 [PP0374] ([NMeL]I[Aze][Sar][NPrPhe(4-CF3)][Sar][hPhe(3-Cl-4-CF3)]P[Ac4c][NMeGly(cPent)]D-NMe2; lactam N-11) | criterion not met
* CCCN1C(=O)CN(C)C(=O)CNC(=O)[C@H]([C@@H](C)CC)NC(=O)[C@H](CC(C)C)N(CC)C(=O)C[C@@H](C(=O)N2CCOCC2)N(C)C(=O)[C@H](C2CCCC2)N(C)C(=O)C2(CCCC2)NC(=O)[C@@H]2CCCN2C(=O)[C@H](CCc2ccc(C(F)(F)F)c(Cl)c2)NC(=O)CN(C)C(=O)[C@@H]1Cc1ccc(C(F)(F)F)cc1 [PP1967] ([NEtLeu]IG[Sar][NPrPhe(4-CF3)][Sar][hPhe(3-Cl-4-CF3)]P[Ac5c][NMeGly(cPent)][NMeD]-Morpholide; lactam N-11) | criterion met

* * *

# System Tested: GDP-bound KRAS wild-type protein (Homo sapiens)
# Assay Info: Binding to KRAS by surface plasmon resonance (SPR), dissociation constant KD
# Measurement Conditions: 1:1 binding model
pKd: −log10 of the molar value.
Is pKd at least 9? Then label 1. If not, label 0.

- C#CC[C@H]1C(=O)N[C@@H]([C@@H](C)CC)C(=O)N(C)CC(=O)N(C)[C@H]2C/C=C\CCN(C2=O)[C@@H](Cc2ccc(C(F)(F)F)cc2)C(=O)N(C)CC(=O)N[C@@H](CCc2ccc(C(F)(F)F)c(OC)c2)C(=O)N2C[C@H](F)C[C@H]2C(=O)NC2(CC(C)(C)C2)C(=O)N(C)[C@@H](CCC=C)C(=O)N(C)[C@H](C(=O)N2CCCC2)CC(=O)N1C [PP3132]: label 0
- CCOC[C@H]1C(=O)N[C@@H]([C@@H](C)CC)C(=O)N(C)CC(=O)N(C)[C@H]2C/C=C\CCN(C2=O)[C@@H](Cc2ccc(C)cc2)C(=O)N(C)CC(=O)N[C@@H](CCc2cc(F)c(C(F)(F)F)c(F)c2)C(=O)N2C[C@H](OCC)C[C@H]2C(=O)NC2(CC(C)(C)C2)C(=O)N(C)[C@@H](C2CCCC2)C(=O)N(C)[C@H](C(=O)N(C)CC)CC(=O)N1C [PP2404]: label 1
- CCC[C@H]1C(=O)N[C@@H](CC(C)C)C(=O)N(CCOC)CC(=O)N(C)[C@H]2C/C=C\CCN(C2=O)[C@@H](Cc2ccc(C)cc2)C(=O)N(C)CC(=O)N[C@@H](CCc2cc(F)c(C(F)(F)F)c(F)c2)C(=O)N2C[C@H](OCC)C[C@H]2C(=O)NC2(CCC2)C(=O)N(C)[C@@H](C2CCCC2)C(=O)N(C)[C@H](C(=O)N(C)C)CC(=O)N1C [PP2541]: label 0
- CCO[C@@H]1C[C@H]2C(=O)NC3(CC(C)(C)C3)C(=O)N(C)[C@@H](C3CCCC3)C(=O)N(C)[C@H](C(=O)N(C)C)CC(=O)N(C)[C@@H]([C@H](C)OC)C(=O)N[C@@H]([C@@H](C)CC)C(=O)N(C3CC3)CC(=O)N(C)[C@H]3C/C=C\CCN(C3=O)[C@@H](Cc3ccc(C)cc3)C(=O)N(C)CC(=O)N[C@@H](CCc3cc(F)c(C(F)(F)F)c(F)c3)C(=O)N2C1 [PP3193]: label 1

Reference for the values: patent EP4603105A1
